System: SF-539 CNS
assay-remarks: NCI tumour cell line growth inhibition, 48 h
Provide the reported TGI of each item.

Query string: Which TGI is reported for this compound? N#Cc1c(NC(=S)NC(=O)c2ccccc2)nc2c(c1-c1ccccc1)CCC2
Result string: > 100 µM

For each of the compounds below, state TGI.
1. O=C1NC2(CCCC2)C(=O)C12CCCC2
2. CCOC(=O)C(OCC1CC=CCC1)Sc1ccccc1 (stereo unspecified)
3. Cc1ccc(-c2c(N)nc(NC#N)nc2CCC(=O)Nc2ccccc2[N+](=O)[O-])cc1
4. Clc1ccccc1C(c1ccccc1)(c1ccccc1)n1ccnc1
5. C=CC1=CSNN1
6. NC(CO)Cc1cnc[nH]1 (stereo unspecified)

Result string:
["> 100 µM", "> 100 µM", "> 100 µM", "11.1 µM", "> 100 µM", "> 100 µM"]

For each of the compounds below, state TGI.
1. CC(C)C(Sc1nc(-c2ccccc2)c(-c2ccccc2)[nH]1)C(=O)NNC(=S)Nc1ccccc1 (stereo unspecified)
2. COc1ccc(NC(=O)Nc2n[nH]c3ccccc23)cc1
3. N#CC1(c2nc3ccccc3o2)C(=O)C(=O)N(C2C3CC4CC(C3)CC2C4)C(=O)C1=O (stereo unspecified)
4. CN1CCN(CC#Cc2cccc(C(=O)c3cnn(-c4ccc(F)cc4)c3N)c2)CC1
5. Nc1ccccc1Nc1ccccc1C(=O)[O-].Nc1ccccc1Nc1ccccc1C(=O)[O-].[Cu+2]

Result string:
1: 35.8 µM; 2: > 100 µM; 3: > 100 µM; 4: > 25 µM; 5: > 100 µM

For each of the compounds below, state TGI.
1. COc1c(C2CC(=O)Nc3c2cnn3Cc2ccco2)cc2c(c1OC)OCO2 (stereo unspecified)
2. CCN(CC)CCn1c2cc3c(cc2c(=O)c2cccnc21)OCCO3
3. C=CC(=O)c1ccc2c(c1)OCCOCCOCCOCCOCCO2
4. COc1cc2oc(-c3ccc(O)cc3)c(OC3OC(C)C(O)C(O)C3O)c(=O)c2c(O)c1OC (stereo unspecified)

Result string:
["4.36 µM", "> 10 µM", "33.2 µM", "> 100 µM"]

src = PubChem BioAssay (NCI)
